- experiment_notes: compounds producing H2O2 with reducing agent – biochemical, NIH compound library profiling, artefact control for MLSCN library redox annotation, primary screen (AID 878);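 note: compound incubated with DTT at 0.8 mM final as the reducing agent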
- condition_label: DTT-dependent redox cycling H2O2, phenol red/HRP absorbance; at 10 µM; stronger effect = higher value; 100% = 100 µM peroxide control, 0% = buffer
Screen size: about 200,000 compounds; about 65 (0.03%) were called active. The sample holds actives, similar compounds and a random draw of the others, so the mix is not that of the screen.
This listing pairs compounds with measured activation.
metric: activation

compound: CN(C)c1ccc(-n2cccc2/C=N/n2cnnc2)cc1
observed_result: -0.65% (inactive)

compound: C=CCNC(=S)NNC(=O)COc1c(Cl)cc(Cl)cc1Cl
observed_result: 0.34% (inactive)

compound: Cc1ccc(C(=O)NC(C)c2ccccc2)cc1Br (stereo unspecified)
observed_result: -0.27% (inactive)

compound: CCN(CC)c1ccc([N+](=O)[O-])cc1C(=O)O
observed_result: 0.13% (inactive)

compound: Cc1cc(NC(=O)CN2C(=O)NC(CCc3ccccc3)C2=O)no1 (stereo unspecified)
observed_result: -0.88% (inactive)

compound: CN(C)/C=C/C(=O)c1cnc2sccn2c1=O
observed_result: 0.12% (inactive)

compound: COc1ccccc1N1CCN(CC(=O)NCCc2ccc(S(N)(=O)=O)cc2)CC1
observed_result: 0.00253% (inactive)

compound: Cc1cc(C)cc(N(CC(=O)N2CC=C(c3ccccc3)CC2)S(=O)(=O)c2c(C)noc2C)c1
observed_result: -1.64% (inactive)

compound: O=C(NC1CCCCCC1)c1cccnc1Sc1ccc(Cl)cc1
observed_result: -0.04% (inactive)

compound: CC(=O)C1(C)N(O)C(C)(C)C(c2cccs2)=[N+]1[O-] (stereo unspecified)
observed_result: 0.23% (inactive)

compound: CC(C)Oc1ccc(/C=C(\NC(=O)/C=C/c2ccco2)C(=O)NCCc2nc3ccccc3[nH]2)cc1
observed_result: 0.27% (inactive)

---

- experiment_notes: compounds producing H2O2 with reducing agent – biochemical, NIH compound library profiling, artefact control for MLSCN library redox annotation, primary screen (AID 878);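 note: compound incubated with DTT at 0.8 mM final as the reducing agent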
- condition_label: DTT-dependent redox cycling H2O2, phenol red/HRP absorbance; at 10 µM; stronger effect = higher value; 100% = 100 µM peroxide control, 0% = buffer
Hit rate of the full screen: of about 200,000 compounds, about 65 (0.03%) were called active. The full list was thinned out, with actives kept by preference.
metric: activation (%)

item_smiles: O=C(/C=C/Sc1ncn[nH]1)c1ccc(Cl)cc1
observed_result: 1.23

item_smiles: O=C(COC(=O)c1ccc(F)cc1)Nc1nc2ccc([N+](=O)[O-])cc2s1
observed_result: -0.91

item_smiles: O=C(Nc1ccccc1)c1cc2ccccc2[nH]1
observed_result: -0.39

item_smiles: CSc1ccc(/C=N\NC(=O)CC(=O)NC(C)C)cc1
observed_result: -0.35

item_smiles: CC1CCN(S(=O)(=O)c2ccc3ncn(CC(=O)N(C)C4CCCCC4)c(=O)c3c2)CC1
observed_result: -2.09

item_smiles: Cc1nc(NC(=O)C2CCCCC2)sc1C
observed_result: 1.88

---

- experiment_notes: compounds producing H2O2 with reducing agent – biochemical, NIH compound library profiling, artefact control for MLSCN library redox annotation, primary screen (AID 878);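 note: compound incubated with DTT at 0.8 mM final as the reducing agent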
- condition_label: DTT-dependent redox cycling H2O2, phenol red/HRP absorbance; at 10 µM; stronger effect = higher value; 100% = 100 µM peroxide control, 0% = buffer
Hit rate of the full screen: of about 200,000 compounds, about 65 (0.03%) were called active. The entries come from a sample that favours actives as a whole.

molecule: Cc1ccc(-n2c(C)cc(/C=N\NC(=O)CC(=O)NC(C)C)c2C)cc1
activation: 0.08% (inactive)
--
molecule: Oc1ccc(/C=N/Nc2ccc(C(F)(F)F)cn2)cc1O
activation: -2.05% (inactive)
--
molecule: O=C(NN1C(=O)C2C3C=CC(C3)C2C1=O)c1ccco1 (configuration not stated)
activation: -0.88% (inactive)
--
molecule: Cc1ccccc1NC(=O)c1ccc(COc2ccc3c(C)cc(=O)oc3c2)cc1
activation: 0.57% (inactive)
--
molecule: CC(C)(C)[C@H]1C=C(C(=O)NCc2ccccc2)O[C@@H](OCc2ccc(CO)cc2)C1
activation: -1.79% (inactive)
--
molecule: CCOC(=O)C1CCN(S(=O)(=O)c2cc(F)ccc2OC)CC1
activation: -0.4% (inactive)
--
molecule: Cc1c(NC(=S)NCc2ccc(F)cc2)cccc1[N+](=O)[O-]
activation: 0.02% (inactive)
--
molecule: COc1ccc(/C=C/C(=O)c2ccc(NS(=O)(=O)c3ccc(C)cc3)cc2)cc1O
activation: 0.57% (inactive)
--
molecule: CNc1ccc(SC#N)cc1
activation: -1.28% (inactive)
--
molecule: CCCn1c(N)c(C(=O)CSc2nc3ccccc3c(=O)n2-c2ccc(OC)cc2)c(=O)[nH]c1=O
activation: 0.00314% (inactive)
--
molecule: O=C(CSc1nc2ccccc2[nH]1)Nc1nc(-c2ccccc2)c(-c2ccccc2)o1
activation: 0.41% (inactive)
--
molecule: COc1ccc(C(=O)Nc2sc(C)c(C)c2CN2CCOCC2)cc1
activation: -0.23% (inactive)
--
molecule: Cc1cc(NC(=O)CSc2nc3c(cc2C#N)CCCCC3)no1
activation: -0.92% (inactive)
--
molecule: O=C(NCCCn1ccnc1)C(=O)c1cn(CC(=O)N2CCCCCC2)c2ccccc12
activation: -0.37% (inactive)
--
molecule: CCOC(=O)C1(Cc2cccc(OC)c2)CCN(C(C)COC)CC1 (configuration not stated)
activation: -0.66% (inactive)
--
molecule: O=C(N/N=C/c1ccco1)c1ccc(C(=O)N/N=C/c2ccco2)o1
activation: -0.77% (inactive)
--
molecule: Cc1ccc(C)c(OCC(=O)N2CCN(C(=O)c3ccco3)CC2)c1
activation: -0.33% (inactive)
--
molecule: CCN1C(=O)/C(=c2\s/c(=C3\Sc4ccccc4N3C)c(=O)n2C)N(C)C1=S
activation: -0.11% (inactive)
--
molecule: Cc1ccc(C)c(NC(=S)NNC(=S)Nc2ccc(C(C)C)cc2)c1
activation: -1.35% (inactive)
--
molecule: CCCn1nc(Oc2nc(NC(C)C)nc(N(C)C)n2)ccc1=O
activation: 0.03% (inactive)
--
molecule: CC(C)(C)C(=O)N(Cc1ccccc1)c1ccccn1
activation: -0.82% (inactive)
--
molecule: O=C(NC(=S)Nc1ccc(NC(=O)c2cccs2)cc1)c1ccc([N+](=O)[O-])cc1
activation: 0.63% (inactive)

---

List of activation values.
- experiment_notes: compounds producing H2O2 with reducing agent – biochemical, NIH compound library profiling, artefact control for MLSCN library redox annotation, primary screen (AID 878);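 note: compound incubated with DTT at 0.8 mM final as the reducing agent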
- condition_label: DTT-dependent redox cycling H2O2, phenol red/HRP absorbance; at 10 µM; stronger effect = higher value; 100% = 100 µM peroxide control, 0% = buffer
Screen size: about 200,000 compounds; about 65 (0.03%) were called active. The list comes from a sample in which actives are over-represented; it also holds close analogues and randomly drawn compounds.
metric: activation (%)

molecule: O=C(C1CC1)N1N=C2CCCCC2C1(O)C(F)(F)F (stereo not given)
metric: activation
observed_result: -0.33
//
molecule: COc1ccc([N+](=O)[O-])cc1NC(=O)c1ccc(N(Cc2ccccc2C)S(C)(=O)=O)cc1
metric: activation
observed_result: 2.05
//
molecule: CCOCCCNC(=O)C(NC(=O)c1ccc(=O)[nH]c1)c1ccc(Cl)cc1 (stereo not given)
metric: activation
observed_result: -3.26
//
molecule: CCCCN=C1C([N+](=O)[O-])=CC=C2C1=NC1(CCCCC1)N2O
metric: activation
observed_result: 0.33
//
molecule: CC1Cc2ccccc2N1S(=O)(=O)c1c(N)n(C)c(=O)n(C)c1=O (stereo not given)
metric: activation
observed_result: -1.16
//
molecule: COc1ccc2nc(Nc3nc(-c4ccncc4)cs3)sc2c1
metric: activation
observed_result: -0.22
//
molecule: CCC(O)C1CCN(Cc2cn(-c3ccc(OC)cc3)nc2-c2cccc(F)c2)CC1 (stereo not given)
metric: activation
observed_result: -1.12
//
molecule: O=C(Nc1cccc(S(=O)(=O)N2CCCCC2)c1)c1ccc2c(c1)OCO2
metric: activation
observed_result: -0.11
//
molecule: CCN(CC)CCCNC(=O)Cn1cnc2sc(C)c(S(=O)(=O)N3CCN(c4ncccn4)CC3)c2c1=O
metric: activation
observed_result: -0.75
//
molecule: CCOc1cc(CNn2c(C)nnc2SCC(=O)NC(C)(C)C)ccc1OCC(=O)NC(C)(C)C
metric: activation
observed_result: -0.27

---

- experiment_notes: compounds producing H2O2 with reducing agent – biochemical, NIH compound library profiling, artefact control for MLSCN library redox annotation, primary screen (AID 878);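 note: compound incubated with DTT at 0.8 mM final as the reducing agent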
- condition_label: DTT-dependent redox cycling H2O2, phenol red/HRP absorbance; at 10 µM; stronger effect = higher value; 100% = 100 µM peroxide control, 0% = buffer
The whole screen tested about 200,000 compounds, of which about 65 (0.03%) were called active. The entries come from a sample that favours actives as a whole.

compound: Cc1cc(C)cc(NC(=O)N2CCCCCCC2)c1
activation, %: -0.28
--
compound: CCC1=NN(C(=O)Cc2ccc([N+](=O)[O-])cc2)C(O)(c2ccc(Br)cc2)C1 (stereo not given)
activation, %: 0.2
--
compound: N#Cc1c(NC(=O)c2ccc(N3CCOCC3)c([N+](=O)[O-])c2)sc2c1CCCC2
activation, %: 0.09
--
compound: O=C1c2cccc3c([N+](=O)[O-])ccc(c23)C(=O)N1CC1CCCO1 (stereo not given)
activation, %: -0.67
--
compound: O=C(CN1CCN(C/C=C/c2ccccc2)CC1)Nc1ccc(F)cc1F
activation, %: -0.37
--
compound: CCCC1(C(=O)OCC)NC(c2ccc(N(C)C)cc2)C2C(=O)N(c3ccc4c(c3)OCCO4)C(=O)C21 (stereo not given)
activation, %: 0.78
--
compound: O=C(CP(=O)(c1ccccc1)c1ccccc1)N1CCOCC1
activation, %: 0.42
--
compound: Cc1ccc2nc(-c3ccccn3)cc(C(=O)Nc3ccc4c(c3)OCO4)c2c1
activation, %: 4.14
--
compound: Cc1noc(C)c1COc1ccc2ccc(=O)oc2c1
activation, %: -0.19
--
compound: COCCNC(=O)c1ccc(N2CCC3(CC2)OCCO3)c([N+](=O)[O-])c1
activation, %: 0.43
